Task for the reader: assign each of the following compounds its reported GI50.
System: NCI/ADR-RES ovarian
Test: NCI tumour cell line growth inhibition, 48 h

Provide measured GI50 value, entry: COc1cc(F)c(/C=C/c2cc(/C=C/c3cc(OC)c(OC)cc3F)n(-c3cc(F)cc(F)c3)n2)cc1OC
2.23 µM

# return recorded GI50 for entry NC(=O)c1ccccc1NC(=O)c1ccccc1Cl
> 100 µM

Look up GI50 of O=C(CCSc1ccnc2c(C(F)(F)F)cccc12)N/N=C/c1cc(Cl)c(Cl)cc1Cl and report it.
23 µM

Query GI50 for Nc1c(C(=O)N/N=C/c2ccc(-c3cc(Cl)c(Cl)cc3Cl)o2)cnn1-c1ccnc2c(C(F)(F)F)cccc12
3.58 µM

State its GI50: CCOc1nccc2c1nc(-c1nonc1N)n2CC
> 25 µM

Quick one: give measured GI50 for CCN(CC)CCn1c2ccc(OC)cc2c2sc3cc(OC)ccc3c(=O)c21
1.24 µM

This collection of values is drawn from PubChem BioAssay (NCI).
